# test target: Potassium voltage-gated channel subfamily KQT member 2 (Rattus norvegicus) (UniProt O88943)
# Sequence (O88943 whole entry, looked up): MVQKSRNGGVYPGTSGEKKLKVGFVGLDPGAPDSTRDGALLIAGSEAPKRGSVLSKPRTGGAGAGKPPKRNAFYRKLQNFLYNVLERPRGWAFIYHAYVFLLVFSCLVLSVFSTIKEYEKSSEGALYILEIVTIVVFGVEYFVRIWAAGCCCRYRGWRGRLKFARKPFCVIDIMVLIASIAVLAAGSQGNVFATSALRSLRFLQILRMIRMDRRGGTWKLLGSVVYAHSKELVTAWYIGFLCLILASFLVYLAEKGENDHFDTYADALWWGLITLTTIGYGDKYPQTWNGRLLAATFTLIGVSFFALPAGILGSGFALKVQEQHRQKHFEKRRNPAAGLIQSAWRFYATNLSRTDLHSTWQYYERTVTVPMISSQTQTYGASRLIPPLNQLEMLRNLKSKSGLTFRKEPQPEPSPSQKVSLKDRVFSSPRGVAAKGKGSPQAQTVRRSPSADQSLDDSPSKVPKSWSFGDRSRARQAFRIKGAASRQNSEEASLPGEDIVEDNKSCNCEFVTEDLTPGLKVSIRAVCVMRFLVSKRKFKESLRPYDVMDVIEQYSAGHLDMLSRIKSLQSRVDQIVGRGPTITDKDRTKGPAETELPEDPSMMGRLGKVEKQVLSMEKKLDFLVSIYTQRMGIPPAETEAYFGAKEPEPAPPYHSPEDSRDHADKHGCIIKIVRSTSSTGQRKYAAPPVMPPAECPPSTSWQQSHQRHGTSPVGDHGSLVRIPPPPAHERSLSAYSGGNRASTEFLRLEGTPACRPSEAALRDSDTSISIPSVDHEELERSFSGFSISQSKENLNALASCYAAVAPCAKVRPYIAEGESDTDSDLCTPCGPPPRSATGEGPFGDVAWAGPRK
# test protocol: rat KCNQ2 channel inhibition by compounds alone, confirmation, counter-screen for hERG block protector project, cell-based, CHO, FluxOR thallium flux (AID 1946)
# protocol conditions: CHO-KCNQ2 cells, FluxOR thallium flux fluorescence, at 10 µM
Out of some 2,400 compounds screened, about 180 (7.5%) were called active.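 Rule for the calls: active = readout below zero, meaning a drop past 3 SD under the dofetilide-free negative control mean; inactive = the rest.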 The sample as a whole holds a higher share of actives than the screen did.
Outcomes: active, inactive

CCCCn1c(O)c(C(CC)=Nc2ccc(OCC)cc2)c(=O)[nH]c1=O: inactive
COc1ccc2c3c1OC1C(O)C=CC4C(C2)[N+](C)(C)CCC341 (stereo not drawn): inactive
COc1ccccc1N1CCN(Cc2ccc(F)cc2)CC1: inactive
Oc1cccc2cccnc12: inactive
CCCc1[nH]nc2c1C1(C(=O)N(Cc3ccccc3)c3ccccc31)C(C(=O)OC)=C(N)O2 (stereo not drawn): inactive
COc1ccc2c(c1)/C(=C/c1cnc[nH]1)C(=O)N2: inactive
O=c1[nH]c(=S)[nH]c(O)c1/C=C1/C=c2ccccc2=N1: active
CN1C(=O)/C(=C\c2ccc(Br)s2)C(=O)NC1=S: inactive
